system: ACHN renal; test: NCI-60 one-dose screen, 48 h (100 = growth as untreated, 0 = no growth, -100 = all killed); conditions: 10 µM unless noted
About 83,000 compounds went through this panel and 20% of them were active in at least one assay; those are over-represented in the sample as a whole.
Item-by-item account of growth
Response body: numeric value in %, unit text excluded.

Here's what some known entries look like.
NNc1ncccn1 : 105
Cc1ccccc1CC(N)C(=O)O (configuration not stated) : 100
Cc1cc(Nc2ccc3c(c2)OCO3)c2cc3c(cc2n1)OCO3 : 50.9
N#CCCN1C(=O)CCC1C(=O)O (configuration not stated) : 101
CCN(CC)CCN1CNC(=S)NC1 : 102

Problem: // lookup growth for COc1ccc(Br)c(C=O)c1
Solution: 88.9

Problem: // lookup growth for CC(C)=CCC[C@@H](C)[C@H]1CC[C@@]2(C)C3=C(CC[C@]12C)[C@@]1(C)CC[C@H](O)C(C)(C)[C@@H]1CC3
Solution: 101

---

test system: COLO 205 colon; experiment: NCI-60 one-dose screen, 48 h; conditions: 10 µM unless noted
The panel holds about 83,000 compounds, 20% with a hit somewhere; the sample as a whole holds those more often. Active and inactive are the calls of the source. The calls were made as follows: active = growth percent below 10; inactive = the rest.
Please state which outcome applies, choosing from active, inactive

COC1=C(OC)C(=O)C(SC/C=C(\C)CCCC(C)CCCC(C)CCCC(C)C)=CC1=O (configuration not stated) : inactive
NC(=O)c1cc2c3ccccc3ccn2c1-c1ccccc1 : active
CCOC(=O)CNC : inactive

Problem: Test call, this compound: CN1CCCN(C(c2ccccc2)c2ccc(Br)cc2)CC1 (configuration not stated)
Solution: inactive

Problem: Test call, this compound: O=C(Nc1ccccc1)c1ccco1
Solution: inactive

Problem: Test call, this compound: OCCOc1ccc(-c2cc(-c3ccccn3)nc(-c3ccccn3)c2)cc1
Solution: active

Problem: Test call, this compound: CCOC(=O)CO
Solution: inactive

---

system: UO-31 renal; test: NCI-60 one-dose screen, 48 h (100 = growth as untreated, 0 = no growth, -100 = all killed); conditions: 10 µM unless noted
About 83,000 compounds went through this panel and 20% of them were active in at least one assay; those are over-represented in the sample as a whole.
Item-by-item account of growth
Response body: numeric value in %, unit text excluded.

Here's what some known entries look like.
Cn1/c(=N\N=C\c2ccccc2OCCO)sc2ccccc21 : 57.2
CCOC(=O)c1cc(C)[nH]c(=O)c1C#N : 105
COc1nc2ccccc2s1 : 73.3
OCCc1ccc(Cl)cc1 : 90.5
O=C1C=C(c2ccccc2)C(O)(c2ccccc2)C1 (centres undefined) : 83.5
CCCC1OC(c2ccco2)OCC1CC (centres undefined) : 77.6
C/C(=N\Nc1ccc([N+](=O)[O-])cc1[N+](=O)[O-])c1ccc(Br)cc1 : 85
Clc1cccc(Cl)c1C1CSc2ccccc2N=C1c1ccccc1 (centres undefined) : 55.3
CCOc1ccccc1NC(=O)CCl : 116
Nc1nc(N)nc(N2CCCCC2)n1 : 87.4

# evaluate next
Problem: Identify the measured growth of COc1ccc2c(ccc[n+]2C)c1 for UO-31 renal.
Solution: 86.5

---

Item-by-item account of growth
test system: HOP-62 NSCLC; assay: NCI-60 one-dose screen, 48 h (100 = growth as untreated, 0 = no growth, -100 = all killed); conditions: 10 µM unless noted
About 83,000 compounds went through this panel and 20% of them were active in at least one assay; those are over-represented in the sample as a whole.
Response body: numeric value in %, unit text excluded.

C=CCS(C)(=O)=O : 87.3

Problem: // lookup growth for O=S(=O)(O)C(C(I)I)S(=O)(=O)O
Solution: 109

Problem: // lookup growth for C1Cc2onc(-c3noc4c3CCC4)c2C1
Solution: 103

Problem: // lookup growth for CN1CCCN(C(c2ccccc2)c2ccc(Cl)cc2)CC1 (configuration not stated)
Solution: 94.2

Problem: // lookup growth for Cn1c(=O)c2nc3c(=O)n(C)c(=O)n(C)c3nc2n(C)c1=O
Solution: 93

Problem: // lookup growth for NNc1ncnc2c1ncn2C1OC(CO)C(O)C1O (configuration not stated)
Solution: 15

Problem: // lookup growth for O=C1C=Cc2ccccc2/C1=C/c1[nH]c(=O)[nH]c1O
Solution: 41.3
